# System: NCI-H226 cells
# Measurement Notes: NCI-H226 proliferation assay (Wuxi AppTec)
# Type: cell-based
# Setup Conditions: Homo sapiens, 168 h, 7 days, CellTiter-Glo, top dose 10, 3-fold dilution, 9 doses
Listed here are compounds together with their documented log10(IC50).
A difference of one corresponds to tenfold IC50; all values are log10 with IC50 in µM.

Here's what some known entries look like.
> print(dat)
                               query.smiles  endpoint.name  quantitative.readout
1  C=C(F)C(=O)N1CCN(c2nccnc2Oc2ccc(C(F)(F)F)nc2)CC1    log10(IC50)                 -2.05
2  C=CC(=O)N1CCN(c2nc(C)ncc2Nc2ccc(C(F)(F)F)cc2)CC1    log10(IC50)                 -1.09
3  C=CC(=O)N1CC=C(c2cnc(C)nc2Oc2ccc(C(F)(F)F)nc2)CC1    log10(IC50)                 -0.86
4  C=CC(=O)N1CC=C(c2cccnc2Nc2ccc(OC(F)(F)F)nc2)CC1    log10(IC50)                 -0.83
5  C=CC(=O)N1CCN(c2nccnc2Nc2ccc(OC(F)F)cc2)CC1    log10(IC50)                 -1.55
6  C=C(F)C(=O)N1CCC(c2nc(C)cnc2Oc2ccc(C(F)(F)F)nc2)CC1    log10(IC50)                 -1.39
7  C=CC(=O)N1CC=C(c2nccnc2Nc2ccc(C(F)(F)F)cn2)CC1    log10(IC50)                 -1.96
8  C=CC(=O)N1CC=C(c2cccnc2Oc2cnc(C(F)(F)F)nc2)CC1    log10(IC50)                 -1.89

# next compound below
Just so you know, measured log10(IC50) for "C=C(F)C(=O)N1CCN(c2nccnc2Oc2cnc(C(F)(F)F)nc2)CC1" came out at -1.57
